- SYSTEM UNDER TEST: Mu-type opioid receptor (Homo sapiens) + Delta-type opioid receptor (Homo sapiens) (UniProt P35372+P41143)
- Sequence (P35372 whole entry, looked up): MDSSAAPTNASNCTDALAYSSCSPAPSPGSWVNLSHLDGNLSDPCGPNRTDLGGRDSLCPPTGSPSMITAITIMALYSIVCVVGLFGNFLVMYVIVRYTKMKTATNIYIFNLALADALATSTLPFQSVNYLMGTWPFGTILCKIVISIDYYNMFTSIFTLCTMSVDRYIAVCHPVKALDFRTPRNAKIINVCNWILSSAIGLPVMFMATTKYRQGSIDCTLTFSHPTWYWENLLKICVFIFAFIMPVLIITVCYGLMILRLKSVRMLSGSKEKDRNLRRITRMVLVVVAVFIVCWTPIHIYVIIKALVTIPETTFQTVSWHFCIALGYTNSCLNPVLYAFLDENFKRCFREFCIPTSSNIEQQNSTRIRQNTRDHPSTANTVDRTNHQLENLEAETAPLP
- Sequence (P41143 whole entry, looked up): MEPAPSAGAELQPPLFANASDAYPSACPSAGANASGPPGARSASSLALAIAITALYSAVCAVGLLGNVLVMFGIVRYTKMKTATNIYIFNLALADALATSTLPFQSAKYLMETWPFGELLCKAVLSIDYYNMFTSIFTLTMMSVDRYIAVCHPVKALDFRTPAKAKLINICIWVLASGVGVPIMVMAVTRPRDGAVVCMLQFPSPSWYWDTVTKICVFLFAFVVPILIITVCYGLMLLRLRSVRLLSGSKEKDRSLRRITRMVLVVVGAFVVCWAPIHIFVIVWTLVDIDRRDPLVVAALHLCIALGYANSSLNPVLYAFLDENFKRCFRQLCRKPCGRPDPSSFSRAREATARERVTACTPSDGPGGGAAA
- TEST SUMMARY: OPRM1-OPRD1 heterodimer agonist potency – cell-based, luminescence, dose response (AID 588407);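 further: potency of agonists raising the heterodimer signal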
- CONDITIONS: cells, MOR-DOR heterodimerization
Active and inactive are the calls of the source. How the calls were made is not given here.
Write down the outcome that applies. Available outcomes: active, inactive

// known answers, use as guide
In [3]: df
Out[3]:
                                   compound  class_assignment
0  CN(C)C(CNC(=S)Nc1ccccc1)c1cccnc1 (stereo unspecified)            active
1  CSCCC(/C(O)=C(\C#N)c1nc2ccccc2[nH]1)N1C(=O)c2ccccc2C1=O (stereo unspecified)            active
2  Cc1ccc2cc(C(c3nnnn3Cc3ccccc3)N3CCc4ccccc43)c(=O)[nH]c2c1 (stereo unspecified)          inactive
3       CSC(=Nc1ccccc1)N=C(SCc1ccccc1)N(C)C            active
4  COC(=O)CCCNC(=O)c1ccc(OC2CCN(CCc3ccccc3)CC2)cc1          inactive

Could you now consider this next compound?
Query: Short answer needed: outcome of this test for COc1ccc(C2C(C#N)=C(N)N(c3sc4c(c3C#N)CCCC4)C3=C2C(=O)CC(C)(C)C3)cc1 (stereo unspecified) ?
Result: active
